assayOverview: CNS and lung tissue concentrations after oral dosing in rats
Format: in vivo
studyConditions: both sexes, Sprague Dawley, rat, brain (CNS tissue); SD rats, oral gavage, 50 mg/kg/day, day 15, 3 h post-dose; read-out: Mean 404-02 CNS Tissue Concentration (nM) ± SEM
recordedEndpoint: concentration at 3 h (nM)

1. CC1(C)CC[C@]2(C(=O)NCC(F)(F)F)CC[C@]3(C)[C@H](C(=O)C[C@@H]4[C@@]5(C)C=C(C#N)C(=O)C(C)(C)[C@@H]5CC[C@]43C)[C@@H]2C1 [Compound 63102] : 1310

* * *

Recorded Mortality by entry
Test system: mice
assayOverview: 9-day toxicity study in mice
Type: in vivo
studyConditions: sesame oil, p.o. daily for 9 days, 10 mg/kg
recordedEndpoint: Mortality

1. CC1(C)CC[C@]2(C(=O)OCc3ccccc3)CC[C@]3(C)[C@H](C(=O)C[C@@H]4[C@@]5(C)C=C(C#N)C(=O)C(C)(C)[C@@H]5CC[C@]43C)[C@@H]2C1 : 0/5
2. CN(C)C(=O)[C@]12CCC(C)(C)C[C@H]1[C@H]1C(=O)C=C3[C@@]4(C)C=C(C#N)C(=O)C(C)(C)[C@@H]4CC[C@@]3(C)[C@]1(C)CC2 [Compound 63324, reference compound] : 0/5
3. CN(C)C(=O)[C@]12CCC(C)(C)C[C@H]1[C@H]1C(=O)C[C@@H]3[C@@]4(C)C=C(C#N)C(=O)C(C)(C)[C@@H]4CC[C@@]3(C)[C@]1(C)CC2 : 1/5
4. CONC(=O)[C@]12CCC(C)(C)C[C@H]1[C@H]1C(=O)C[C@@H]3[C@@]4(C)C=C(C#N)C(=O)C(C)(C)[C@@H]4CC[C@@]3(C)[C@]1(C)CC2 : 0/5
5. CONC(=O)[C@]12CCC(C)(C)C[C@H]1[C@H]1C(=O)C=C3[C@@]4(C)C=C(C#N)C(=O)C(C)(C)[C@@H]4CC[C@@]3(C)[C@]1(C)CC2 [Compound 63166, reference compound] : 0/5
